Target: Human neutrophil elastase (Homo sapiens)
Construct: purchased ART Biochemicals, Athens, Ga
Sequence (P08246 30-267): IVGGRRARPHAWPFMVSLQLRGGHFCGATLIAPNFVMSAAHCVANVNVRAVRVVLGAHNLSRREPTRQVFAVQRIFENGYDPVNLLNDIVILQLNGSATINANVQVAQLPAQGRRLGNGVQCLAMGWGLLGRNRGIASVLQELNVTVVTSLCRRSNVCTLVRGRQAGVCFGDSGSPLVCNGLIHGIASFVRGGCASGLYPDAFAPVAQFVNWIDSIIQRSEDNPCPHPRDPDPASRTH
Assay: Inhibitory selectivity of HCV NS3 protease over elastase (human neutrophil elastase assay)
Type: biochemical
Conditions: IC50 (elastase) divided by IC50 (HCV NS3)
quantity: Selectivity of HCV NS3 vs. elastase

| substance | reported_result |
| --- | --- |
| H-Asp-Glu-Val-Val-Pro-(1R)-1-amino-3-phenylpropylboronic acid (+)-pinanediol ester [Example 3] | >10 |
| H-Asp-Glu-Val-Val-Pro-(1R)-1-amino-3-(1,1′-biphenyl)-4-ylpropylboronic acid (+)-pinanediol ester [Example 11] | >10 |
| H-Asp-Glu-Val-Val-Pro-(1R)-1-amino-3-(4-methyl)phenylpropylboronic acid (+)-pinanediol ester [Example 10] | >10 |
